Tested on: MALME-3M melanoma
ASSAY COMMENT: NCI-60 one-dose screen, 48 h (100 = growth as untreated, 0 = no growth, -100 = all killed)
COND: 10 µM unless noted
Procedure: Cells are grown in 96 well plates and exposed to the test compound for 48 hours. Compounds are tested at a single concentration, which is 10^-5 M for most compounds. The reported endpoint is percent growth (GI% or GIPRCNT), where numbers from 0 - 100% represent growth inhibition, and numbers from -100% - 0 represent cell death. For example, a value of 40 represents 60% growth inhibition. A value of 0 means no net growth occurred over the course of the experiment. […]
The panel holds about 83,000 compounds, 20% with a hit somewhere; the sample as a whole holds those more often.
Each record's class is read off its growth using these ranges: bottom range: < 30%; center range: ≥ 30% and < 90%; top range: ≥ 90%

> print(dat)
                                    compound   label.class
 1  CCCCCc1ccc(S(=O)(=O)Nc2cc(-c3csc(NC(=O)CN4CCN(CCO)CC4)n3)ccc2OC)cc1  bottom range
 2  O=C(NCCn1ccnc1)c1ccc(-c2nc3ccc4[nH]ncc4c3c3c2CCCC3)cc1  center range
 3  Cc1cc(C)c(N2C(=O)CC(Nc3ccc(Cl)cc3Cl)C2=O)c(C)c1 (stereo not given)     top range
 4  O=C(NNc1nc2cc(F)ccc2n2c(CO)ccc12)c1cnccn1  bottom range
 5  COCCNc1ccc2ncc(C#Cc3cncc(C(=O)Nc4ccc(CN5CCN(C)CC5)c(C(F)(F)F)c4)c3)n2n1  bottom range
 6  O=C1Nc2ccccc2/C1=C/c1ccc(CO)n1-c1ccc(Cl)cc1  bottom range
 7  Cc1ccc(NC(=O)c2ccc(CN3CCOCC3)c(C(F)(F)F)c2)cc1Oc1ccc(-c2[nH]nc3ncnc(N)c23)cc1  bottom range
 8  Cc1ccc2c(c1)Oc1nc(N)c(C#N)c(N)c1C2Sc1ccc(F)cc1 (stereo not given)  bottom range
 9  COc1ccc(-c2nc3cc(Cl)c(Cl)cc3n2CC(=O)N=Nc2c(O)[nH]c3ccc(OC)cc23)cc1  center range
10  N#Cc1c(Nc2ccccc2)nn2c(-c3ccc([N+](=O)[O-])cc3)ccnc12     top range
11  Cc1ccc(-c2nnc(SCc3ccc(O)c4ncccc34)n2-c2ccccc2)cc1  bottom range
12  CCCC(=O)NC(c1cccnc1)c1cc(C(C)(C)C)c2cccnc2c1O (stereo not given)  bottom range
13             CS(=O)(=O)c1ncc(-c2ccccc2)cn1     top range
14  COc1cc(/C=C2\C(=O)Nc3ccccc32)ccc1OCc1ccc(Cl)cc1     top range
15  COc1ccc(S(=O)(=O)NCCCNc2nccc(-c3cn(C(C)(C)C)nc3-c3ccc(Cl)c(OC)c3)n2)cc1     top range
16  CNC(=O)c1c(NC(=O)c2ccccc2C(F)(F)F)sc2c1CCC(=O)C2  center range
17  CC(C)(C)c1ccc(-c2nnc(-c3nc4ccccc4nc3Cl)o2)cc1     top range
18  COc1ccc(COc2ccc(/C=C3\C(=O)Nc4ccccc43)cc2OC)cc1     top range
19  NS(=O)(=O)c1ccc(Nc2cc(-c3ccccc3)nc(SCC(=O)c3ccccc3)n2)cc1     top range

Source listed as PubChem BioAssay (NCI).
